These measurements were taken from PubChem BioAssay (NCI).

Test system: HOP-92 NSCLC
Experiment: NCI tumour cell line growth inhibition, 48 h
PROPERTY NAME: TGI (µM)
Kindly answer with a numeric value in µM, unit omitted.

CC(C)=CCC/C(C)=C/CCC1(C)C2COC(=O)C21 (stereo unspecified) = 87
Cc1ccc(Nc2ccnc(Nc3cccc(C(N)=O)c3)n2)cc1O = 8.25

Look up TGI: CCC[CH2][Ge]([CH2]CCC)([CH2]CCC)[O]C(=O)CCl 8.54

###

System: T-47D breast
Assay: NCI tumour cell line growth inhibition, 48 h
PROPERTY NAME: TGI

Look up TGI: CCn1c2ccccc2c2cc(NC(=O)c3c(C)[nH]c(=O)[nH]c3=S)ccc21 > 100 µM

Another molecule to look at: NC(=O)CN1CCN(c2nc(N3CCCC3)c3nc(Cl)c(NCc4ccccc4)nc3n2)CC1 20.7 µM

Another molecule to look at: Fc1cc(Nc2ccc3c(OCCCN4CCOCC4)cccc3n2)ccc1Cl 7.16 µM

###

Below: a set of entries, each annotated with reported TGI.
Tested on: MDA-N
Experiment: NCI tumour cell line growth inhibition, 48 h

Cn1cnc([N+](=O)[O-])c1Sc1nncc2[nH]cnc12 = > 100 µM
COc1ccc(/C=C(\C#N)c2nc(-c3cc4ccccc4oc3=O)cs2)cc1 = > 100 µM
CC(=O)Nc1oc(C)nc1C#N = > 100 µM
Cc1cn(C2CC(O)C(Cn3cc(Cn4nc(Br)c(=O)[nH]c4=O)nn3)O2)c(=O)[nH]c1=O (configuration not stated) = > 100 µM
NC(Cc1ccccc1)C(=O)O (configuration not stated) = > 100 µM

Look up TGI: CC1=C(C(=O)OC(C)C)C(c2cccc([N+](=O)[O-])c2)C(C(=O)OC(CO[N+](=O)[O-])CO[N+](=O)[O-])=C(C)N1 (configuration not stated) 8.71 µM

Another compound to look at: COc1ccc2c3c([nH]c2c1)[C@H]1C[C@H]2[C@H](C[C@@H](O)[C@H](OC)[C@H]2C(=O)O)CN1CC3 > 100 µM

Another compound to look at: C1CN(C23OC4(N5CCOCC5)C5C6CC(C7C6C4C72)C53)CCO1 (configuration not stated) > 100 µM

Another compound to look at: Cc1ccc(Oc2cc(C)ccc2P(=O)(O)O)cc1 > 100 µM

Another compound to look at: N#Cc1nc(Cc2cccs2)oc1N > 100 µM

Another compound to look at: COC(=O)[C@]12CCC(=O)N1[C@H](C(=O)O)Cc1c2[nH]c2ccccc12 > 100 µM

Another compound to look at: O=C1/C(=C/c2ccc(Cl)c(Cl)c2)CN(C(=O)CCN2CCOCC2)C/C1=C\c1ccc(Cl)c(Cl)c1 0.0441 µM

Another compound to look at: Fc1ccccc1C1SCC2=Nc3ccccc3CN21 (configuration not stated) > 100 µM

###

Tested on: IGROV1 ovarian
Test: NCI tumour cell line growth inhibition, 48 h
Below: a set of entries, each annotated with reported GI50.

Use these answered entries as a reference point.
NC(=O)c1ccc(-c2c3ccccc3cc3c2ccc2ccccc23)cc1 = 7.6 µM
CN(C)c1ccc(/C=N/Nc2ccc(-c3nc4ccccc4[nH]3)cc2)cc1 = 9.37 µM
C[C@@H]1CC[C@H]2C(CN3CCN(CC4=C(C(F)(F)F)O[C@@H]5O[C@@]6(C)CC[C@H]7[C@H](C)CC[C@@H]4[C@@]57OO6)CC3)=C(C(F)(F)F)O[C@@H]3O[C@@]4(C)CC[C@@H]1[C@]32OO4 = > 27.4 µM

In the following, a different compound is considered.
Look up GI50: COc1cc([N+](=O)[O-])c2ncccc2c1O 4.51 µM

###

Tested on: PC-3 prostate
Test: NCI tumour cell line growth inhibition, 48 h
Below: a set of entries, each annotated with reported TGI.

CCOC(=O)C1C2C1C1C(C(=O)OCC)C21 (stereo not given) = > 100 µM
O=C(O)c1c(Cl)c(Cl)c(Cl)c(Cl)c1-c1c2cc(I)c(=O)c(I)c-2oc2c(I)c(O)c(I)cc12 = 89.3 µM
O=C(N/N=C\c1cc(Cl)ccc1O)N/N=C/c1cc(Cl)ccc1O = > 100 µM
COc1ccc(N2C(=O)CSC2c2cc(OC)c(OC)c(OC)c2)cc1 (stereo not given) = > 100 µM
Fc1cc(Nc2ccc3c(OCCCN4CCOCC4)cccc3n2)ccc1Cl = 5.83 µM
CC(=O)N/N=C1\NN(C(C)=O)C2(S1)C(=O)Nc1ccccc12 (stereo not given) = > 100 µM
Cn1c(=O)n2n(c1=O)C1C(=CC2)C2C=CC1n1c(=O)n(C)c(=O)n12 (stereo not given) = > 100 µM
CN(C)CCCN1C(=O)N(CCCN(C)C)c2c3cc(O)ccc3nc3c([N+](=O)[O-])ccc1c23 = 24 µM
COc1cc(Nc2ncc(-c3ccccc3)o2)cc(OC)c1OC = > 25 µM

In the following, a different compound is considered.
Given the entry Cc1ccc(N=Nc2cc(=O)[nH]c(=O)[nH]2)cc1C , what TGI was observed with PC-3 prostate? 11.7 µM

###

Below: a set of entries, each annotated with reported TGI.
Test system: MOLT-4 leukemia
Experiment: NCI tumour cell line growth inhibition, 48 h

CCn1c2ccccc2c2cc(NC(=O)c3c(C)[nH]c(=O)[nH]c3=S)ccc21 = > 100 µM
COc1cc2c(cc1OCc1ccccc1)NC(=O)[C@@H]1C[C@@H](O)CN1C2=O = > 100 µM
COC(=N)/C(=C1\OC(N)=C(c2ccc(Cl)cc2)C1=O)c1ccc(Cl)cc1 = > 100 µM
O=c1[nH]nc(Cc2ccc([N+](=O)[O-])cc2)[nH]1 = > 100 µM
COc1ccc(C2CC(C)=Nc3c([nH]c(=S)[nH]c3=O)N2)cc1 (stereo not given) = 67.4 µM
O=C(O)c1cc2c(cc1CC(Cc1ccccc1)C(=O)O)CCC2 (stereo not given) = > 100 µM
O/N=C1/CCCCC1NO (stereo not given) = > 100 µM
COc1ccc2c(c1)[n+]([O-])c(-c1ccc(Cl)c(Cl)c1)c(N)[n+]2[O-] = > 100 µM
CN(C)/C(=N/C(=O)Nc1ccccc1)SCc1ccccc1 = > 100 µM
CC(=O)Nc1[nH]c(=O)[nH]c(=O)c1N(C(C)=O)C(C)=O = > 100 µM

Look up TGI: O=C(NC(Cc1c[nH]c2ccccc12)C(=O)O)/C(=C/c1ccccc1)NC(=O)c1ccccc1 (stereo not given) > 100 µM

Another compound to look at: C=C1C[C@]23CC[C@@H]4C(CO)(CO)CC(=O)C[C@]4(C)[C@@H]2C(O)C[C@H]1C3 (stereo not given in full) > 100 µM

###

Below: a set of entries, each annotated with reported TGI.
Tested on: ACHN renal
Assay: NCI tumour cell line growth inhibition, 48 h

Given the entry Cc1cccc(-c2cc(=O)c3c(C)ccnc3[nH]2)c1 , what TGI was observed with ACHN renal? > 100 µM

Another compound to look at: C=CC(=O)N1C/C(=C\c2ccc(F)cc2)C(=O)/C(=C/c2ccc(F)cc2)C1 0.715 µM

Another compound to look at: CCn1cc(C2NC(=O)c3cc(F)ccc3N2)c2cccc(Cl)c21 (configuration not stated) > 100 µM

Another compound to look at: CCOC(=O)Cn1c(C)nc2nn(Cc3ccccc3)cc2c1=O > 100 µM

Another compound to look at: c1ccc(CN(Cc2ccccn2)Cn2cccn2)nc1 > 100 µM

###

Tested on: SK-MEL-28 melanoma
Assay: NCI tumour cell line growth inhibition, 48 h
PROPERTY NAME: GI50

C/C(=N\n1c(N)c(C#N)c(-c2ccc(Cl)cc2)c(C#N)c1=O)c1cccnc1 = > 100 µM

Given the entry CCn1cc(C2NC(=O)c3cc(F)ccc3N2)c2cccc(Cl)c21 (stereo not given) , what GI50 was observed with SK-MEL-28 melanoma? 0.847 µM

Another molecule to look at: COc1cc(Nc2ncc(-c3ccccc3)o2)cc(OC)c1OC 4.38 µM

Another molecule to look at: COCCOCCOCCOCCOc1ccc2c(c1)C(=O)c1nc3ncccc3c(=O)n1-2 0.765 µM

Another molecule to look at: COc1cc(C(=O)c2c(-c3ccccc3)oc3ccccc23)cc(OC)c1O 10.4 µM

###

Test system: NCI-H522 lung
Experiment: NCI tumour cell line growth inhibition, 48 h
PROPERTY NAME: TGI (µM)
Kindly answer with a numeric value in µM, unit omitted.

Use these answered entries as a reference point.
COc1ccc(N2C(=O)CSC2c2cc(OC)c(OC)c(OC)c2)cc1 (stereo not given) = 73.6
COC(=O)C[C@H]1[C@]2(C)C3=C(C)[C@H](c4ccoc4)CC3O[C@@H]2[C@@H]2OC(=O)[C@]3(C)CCC(=O)[C@@]1(C)[C@@H]23 (stereo not given in full) = 91.1
C=C(C)[C@@H]1CC[C@]2(C#N)CC[C@]3(C)[C@H](CC[C@@H]4[C@@]5(C)CCCNC(C)(C)[C@@H]5CC[C@]43C)[C@@H]12 = 3.61

Look up TGI: COc1cc(/C=C/C=C2\CC(C)C/C(=C\C=C\c3ccc(O)c(OC)c3)C2=O)ccc1O (stereo not given) 2.5

Another compound to look at: Cc1ccc2c3ccc4c(c3n(C)c2c1)C(=O)C=CC4=O 4.75

Another compound to look at: C=C1C(=O)OC2C1CC1OC2C(C)CCC/C(C)=C\CCC1(C)O (stereo not given) 26.2

Another compound to look at: CCN(CC)c1ccc(/C=N\NC(=O)c2cccc(Nc3ccnc(C(F)(F)F)c3)c2)c(O)c1 15.7

Another compound to look at: NC(=S)N1N=C(c2ccc3c(c2)CCC3)CC1c1ccccc1 (stereo not given) 24.7
